Just for reference, patent US20140017242A1 is where these values come from.

The entries below come with measured koff values attached.
- target-or-system: T1, human BKB2R-derived epitope peptide (SEQ ID NO:73), PEG-biotin (human, also: PEG-biotin, site not given here)
- T1 construct: also called immunogenic human BKB2R peptide fragment
- T1 peptide: KEYSDEGHNVTAC
- measurement-protocol: BLI (Octet), peptide-PEG-biotin on streptavidin sensor, antibody 500 nM
Where no end group is shown, it is not given here.

[
  {
    "binder": "humanized anti-BKB2R antibody H39/L37 (antibody, human IgG2, kappa, V domains shown) VH: EVKLVESGGGLVQPGGSLRLSCAVSGFTFSDYWMDWVRQAPGKGLEWVAEIRLKSDNYATHYAASVKGRFTISRDDSKSRLYLQMNSLKTEDTAVYYCTRDYYAMEYWGQGTTVTVSS VL: DIVMTQTPLSLSVTPGQPASISCKSSQTIVHSNGKTYLYWYLQKPGQSPQLLIYKVSSRFSGVPDRFSGSGSGTDFTLKISRVEAEDVGVYYCFQASHVPYTFGQGTKLEIKR",
    "koff": "0.0288 s⁻¹"
  },
  {
    "binder": "humanized anti-BKB2R antibody H38/L37 (antibody, human IgG2, kappa, V domains shown) VH: EVQLLESGGGLVQPGGSLKLSCAVSGFTFSDYWMSWVRQAPGKGLEWVSEIRLKSDNYATHYADSVKGRFTISRDDSKNTLYLQMNSLRAEDTAVYYCTRDYYAMEYWGQGTLVTVSS VL: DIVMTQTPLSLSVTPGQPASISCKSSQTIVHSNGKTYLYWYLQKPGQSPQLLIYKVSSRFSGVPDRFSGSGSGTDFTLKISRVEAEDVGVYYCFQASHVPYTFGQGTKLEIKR",
    "koff": "29.4 s⁻¹"
  },
  {
    "binder": "humanized anti-BKB2R antibody L2/H1 (antibody, human IgG2, kappa, V domains shown) VH: EVQLVESGGGLVQPGGSLRLSCAASGFTFSDYWMSWVRQAPGKGLEWVAEIRLKSDNYATHYAESVKGRFTISRDNAKNSLYLQMNSLRAEDTAVYYCTRDYYAMEYWGQGTLVTVSS VL: DIVMTQSPLSLPVTPGEPASISCRSSQTIVHSNGKTYLEWYLQKPGQSPQLLIYKVSNRFSGVPDRFSGSGSGTEFTLKISRVEAEDVGVYYCFQASHVPYTFGQGTKLEIKR",
    "koff": "0.00507 s⁻¹"
  }
]
